Test name: Therapeutic index, ratio of CC50 for human K562 cells to MIC90 for Candida albicans ATCC 10261
Format: cell-based
Listed molecules paired with reported selectivity ratio
Quantity name: selectivity ratio

• CC(=O)N1CCN(c2ccc(OCC3COC(Cn4ccnc4)(c4ccc(Cl)cc4Cl)O3)cc2)CC1 (configuration not stated) = 12.8
• OC(Cn1cncn1)(Cn1cncn1)c1ccc(F)cc1F = 6
• Cc1ccc(OC(CCn2ccnc2)c2ccc(Cl)cc2)cc1 (configuration not stated) = 56.8
• Cc1ccc(OC(CCCn2ccnc2)c2ccc(Cl)cc2)cc1 (configuration not stated) = 64.8
• Cc1ccc(C(CCn2ccnc2)Oc2ccc(Cl)cc2)cc1 (configuration not stated) = 42.8
• Clc1ccc(COC(Cn2ccnc2)c2ccc(Cl)cc2Cl)c(Cl)c1 (configuration not stated) = 20
• Clc1ccc(COC(Cn2ccnc2)c2ccc(Cl)cc2Cl)cc1 (configuration not stated) = 8.8

----------
Test name: Cytotoxicity against human K562 cells after assessed as reduction of cell viability 24 hrs by MTT assay
Assay type: cell-based
Quantity name: CC50 at 24 h (µM)

* Cc1ccc(C(CCn2ccnc2)Oc2cc(Cl)cc(Cl)c2)cc1 (stereo not drawn) | 98
* Cc1ccc(OC(CCn2ccnc2)c2ccccc2)cc1 (racemic) | 95.9
* Clc1ccc(C(CCn2ccnc2)Oc2cc(Cl)cc(Cl)c2)cc1 (stereo not drawn) | 135
* Cc1ccc(OC(CCn2ccnc2)c2ccc(F)cc2)cc1 (stereo not drawn) | 383
* Cc1ccc(OC(CCn2ccnc2)c2ccc(C)cc2)cc1 (stereo not drawn) | 191
* CC(C)c1ccc(OC(CCn2ccnc2)c2ccc(Cl)cc2)cc1 (stereo not drawn) | 138
* Clc1ccc(OC(CCn2ccnc2)c2ccccc2)cc1 (stereo not drawn) | 256
* Clc1ccc(C(CCn2ccnc2)Oc2ccccc2Cl)cc1 (stereo not drawn) | 205
* Clc1ccc(OC(CCn2ccnc2)c2ccccc2)c(Cl)c1 (racemic) | 121
* Clc1ccc(C(CCn2ccnc2)Oc2c(Cl)cccc2Cl)cc1 (stereo not drawn) | 135
* Clc1ccc(OC(CCn2ccnc2)c2ccc(Cl)cc2)cc1 (stereo not drawn) | 265
* OC(Cn1cncn1)(Cn1cncn1)c1ccc(F)cc1F | 385
* Fc1ccc(C(CCn2ccnc2)Oc2ccc(Cl)cc2Cl)cc1 (stereo not drawn) | 74.2
* Cc1ccc(OC(Cn2ccnc2)c2ccc(Cl)cc2)cc1 (stereo not drawn) | 99
* Fc1ccc(C(CCn2ccnc2)Oc2cc(Cl)cc(Cl)c2)cc1 (stereo not drawn) | 98.1
* Cc1ccc(OC(CCCn2ccnc2)c2ccc(Cl)cc2)cc1 (stereo not drawn) | 259
* Cc1ccc(C(CCn2ccnc2)Oc2ccc(Cl)cc2Cl)cc1 (stereo not drawn) | 97
* Clc1ccc(COC(Cn2ccnc2)c2ccc(Cl)cc2Cl)c(Cl)c1 (stereo not drawn) | 80
* Cc1ccc(OC(CCn2ccnc2)c2ccc(Cl)cc2)cc1 (stereo not drawn) | 227
* Clc1ccc(C(CCn2ccnc2)Oc2ccccc2)cc1 (stereo not drawn) | 186
* CCc1ccc(OC(CCn2ccnc2)c2ccc(Cl)cc2)cc1 (stereo not drawn) | 185
* Cc1ccc(C(CCn2ccnc2)Oc2ccc(C)cc2Cl)cc1 (stereo not drawn) | 123
* CC(=O)N1CCN(c2ccc(OCC3COC(Cn4ccnc4)(c4ccc(Cl)cc4Cl)O3)cc2)CC1 (stereo not drawn) | 102

----------
Tested on: Candida albicans
Test name: Antifungal activity against Candida albicans ATCC 10261 at 35 degC after 48 hrs by broth microdilution test
Type: functional
Test conditions: Candida albicans, ATCC 10261, 48 h; read-out: MIC50
Quantity name: MIC50 (µg/mL)

- Cc1ccc(C(CCn2ccnc2)Oc2ccc(Cl)cc2Cl)cc1 (stereo unspecified): 4
- CCC(C)n1ncn(-c2ccc(N3CCN(c4ccc(OC[C@@H]5CO[C@@](Cn6cncn6)(c6ccc(Cl)cc6Cl)O5)cc4)CC3)cc2)c1=O (stereo partly specified): 0.5
- Clc1ccc(OC(CCn2ccnc2)c2ccc(Cl)cc2Cl)c(Cl)c1 (stereo unspecified): 64
- Cc1ccc(C(CCn2ccnc2)Oc2cc(Cl)cc(Cl)c2)cc1 (stereo unspecified): 16
